Reference source for all entries: the RNAGym collection of RNA variant scans (doi:10.1073/pnas.2313332121)

B1: TPR t1 (parent)
chain: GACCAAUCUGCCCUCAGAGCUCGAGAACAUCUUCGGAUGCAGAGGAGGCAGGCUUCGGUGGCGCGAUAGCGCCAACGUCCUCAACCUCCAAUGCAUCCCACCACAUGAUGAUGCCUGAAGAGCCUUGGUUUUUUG

variants of: B1; test: polymerase ribozyme fitness, log enrichment relative to wild type (log ratio); higher = more active; in vitro selection for triplet polymerase activity
I would appreciate it if you labelled entries 1 when polymerase ribozyme fitness (log ratio) is -5 or higher, otherwise 0.

G57U A74G :: 1

[Q] Is reported polymerase ribozyme fitness (log ratio) greater than or equal to -5 here: C3U G60A G77U G117C
[A] 1

[Q] Confirm if polymerase ribozyme fitness (log ratio) reported for the variant C22A C72G A83G C115A is -5 or above.
[A] 0

[Q] // inclusive: polymerase ribozyme fitness (log ratio) at least -5? input: G117C G120U
[A] 1

[Q] Could you tell me if the measured polymerase ribozyme fitness (log ratio) of A5G C64U reaches -5 or more?
[A] 1

[Q] Reported polymerase ribozyme fitness (log ratio) reaches at least -5 for A100C U130G ?
[A] 1

[Q] Is it the case that A5U G71C U106G has polymerase ribozyme fitness (log ratio) reaching or exceeding -5?
[A] 1

[Q] Does G25C A83C C94G A103U C124G U125C have a reported polymerase ribozyme fitness (log ratio) of at least -5?
[A] 0

[Q] Would you say C12U C49G C97A A111U shows polymerase ribozyme fitness (log ratio) at minimum -5?
[A] 0

[Q] Could you verify whether the entry C12U U55C G71A A90G G113U shows polymerase ribozyme fitness (log ratio) of no less than -5?
[A] 1

[Q] Is it the case that A2G G60A has polymerase ribozyme fitness (log ratio) reaching or exceeding -5?
[A] 1
